The measured values listed here are drawn from the Immune Epitope Database (IEDB).

- ASSAYED_TARGET: HLA-B*08:01
- PROTOCOL_DESCRIPTION: IEDB peptide-MHC binding, purified MHC/direct/fluorescence; filed as Kd, often an IC50 or EC50 that approximates it; bounds were set here for any values at or beyond the usual limits of such assays
- CONDITIONS: source organism: Brucella suis 1330
pKd: −log10 of the molar value.
METRIC_NAME: pKd

Lookup result for `YWMGGTTYF` ; measured pKd: ≤ 4.70

---

- ASSAYED_TARGET: HLA-A*02:03
- PROTOCOL_DESCRIPTION: IEDB peptide-MHC binding, purified MHC/competitive/radioactivity; filed as Kd, often an IC50 or EC50 that approximates it; bounds were set here for any values at or beyond the usual limits of such assays
- CONDITIONS: source organism: Lassa virus Josiah
METRIC_NAME: pKd
As a rule, pKd stands for the negative log10 of the concentration, concentration in M.

| POLYMER_SEQUENCE | READOUT_VALUE |
| --- | --- |
| NLYDHALMSI | 9.27 |

Please examine the following record next.
Sample `IISTFHLSI` ; pKd observed: 7.86
